# STUDY_SYSTEM: T1, TNFR2-His protein (Homo sapiens, UniProt P20333)
# T1 construct: Tumor necrosis factor receptor 2 (TNFR2), human; The BLI methods say only 'TNFR2-His protein'; It may be the E. coli ectodomain (residues 33-205, purified on a nickel column) or a bought protein (Sino Biological 10417-H03H); neither the source nor the species is named for this experiment; also called histidine-tagged TNFR2
# T1 sequence (P20333 23-461): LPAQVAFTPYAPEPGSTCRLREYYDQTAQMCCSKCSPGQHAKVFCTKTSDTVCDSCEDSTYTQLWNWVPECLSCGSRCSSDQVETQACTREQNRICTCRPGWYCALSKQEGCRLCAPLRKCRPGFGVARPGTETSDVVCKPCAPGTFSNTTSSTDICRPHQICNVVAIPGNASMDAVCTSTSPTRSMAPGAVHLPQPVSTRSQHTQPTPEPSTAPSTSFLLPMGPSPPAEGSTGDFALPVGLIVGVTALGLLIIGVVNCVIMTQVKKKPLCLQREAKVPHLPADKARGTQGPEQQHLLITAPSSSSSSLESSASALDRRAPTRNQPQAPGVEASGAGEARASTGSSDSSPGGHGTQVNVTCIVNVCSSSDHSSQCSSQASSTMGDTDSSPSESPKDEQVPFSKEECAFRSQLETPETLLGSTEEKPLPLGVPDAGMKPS
# METHOD_SUMMARY: BLI; 30 nM Nanobody-161 IgG1 or mutant immobilised on Protein A biosensors (Gator); 4800 nM-300 nM TNFR2-His in Q Buffer (PBS, 0.02% Tween 20, 0.2% BSA); 25 °C; association 120 s, dissociation 180 s; global 1:1 Langmuir fit
# DETAILS: both partners purified
PROPERTY_MEASURED: log10 koff (log10 of the value in s⁻¹)
Recall that a logarithmic scale is used here: each number is log10 of koff in s⁻¹.

Nanobody-161 IgG1 (VHH, also called WT; source: ExpiCHO, purified (MabSelect SuRe LX)) VHH: EVQLVESGGGLVQPGGSLRLSCAASGSIRFINDMGWYRQAPGKGLELVAAIGRGGGSTNYADSVKGRFTISRDNAKNTLYLQMNSLRAEDTAVYYCHAEISQLGYAFRDYWGQGTLVTVSS
-3.56
Nanobody-161 IgG1 R53A (VHH, as the VHH of Wm1, with the stated change) VHH: EVQLVESGGGLVQPGGSLRLSCAASGSIRFINDMGWYRQAPGKGLELVAAIGAGGGSTNYADSVKGRFTISRDNAKNTLYLQMNSLRAEDTAVYYCHAEISQLGYAFRDYWGQGTLVTVSS
-3.49
Nanobody-161 IgG1 L103G (VHH, as the VHH of Wm1, with the stated change) VHH: EVQLVESGGGLVQPGGSLRLSCAASGSIRFINDMGWYRQAPGKGLELVAAIGRGGGSTNYADSVKGRFTISRDNAKNTLYLQMNSLRAEDTAVYYCHAEISQGGYAFRDYWGQGTLVTVSS
-2.42
Nanobody-161 IgG1 R29A (VHH, as the VHH of Wm1, with the stated change) VHH: EVQLVESGGGLVQPGGSLRLSCAASGSIAFINDMGWYRQAPGKGLELVAAIGRGGGSTNYADSVKGRFTISRDNAKNTLYLQMNSLRAEDTAVYYCHAEISQLGYAFRDYWGQGTLVTVSS
-2.70

Quick one: give me log10 koff for each item below, same order please.
1. Nanobody-161 IgG1 S101A (VHH, as the VHH of Wm1, with the stated change) VHH: EVQLVESGGGLVQPGGSLRLSCAASGSIRFINDMGWYRQAPGKGLELVAAIGRGGGSTNYADSVKGRFTISRDNAKNTLYLQMNSLRAEDTAVYYCHAEIAQLGYAFRDYWGQGTLVTVSS
2. Nanobody-161 IgG1 F30G (VHH, as the VHH of Wm1, with the stated change) VHH: EVQLVESGGGLVQPGGSLRLSCAASGSIRGINDMGWYRQAPGKGLELVAAIGRGGGSTNYADSVKGRFTISRDNAKNTLYLQMNSLRAEDTAVYYCHAEISQLGYAFRDYWGQGTLVTVSS
3. Nanobody-161 IgG1 R108A (VHH, as the VHH of Wm1, with the stated change) VHH: EVQLVESGGGLVQPGGSLRLSCAASGSIRFINDMGWYRQAPGKGLELVAAIGRGGGSTNYADSVKGRFTISRDNAKNTLYLQMNSLRAEDTAVYYCHAEISQLGYAFADYWGQGTLVTVSS
4. Nanobody-161 IgG1 Q102A (VHH, as the VHH of Wm1, with the stated change) VHH: EVQLVESGGGLVQPGGSLRLSCAASGSIRFINDMGWYRQAPGKGLELVAAIGRGGGSTNYADSVKGRFTISRDNAKNTLYLQMNSLRAEDTAVYYCHAEISALGYAFRDYWGQGTLVTVSS

Result:
1. -2.03
2. -1.90
3. -3.06
4. -3.16
